Data provenance: patent US20250074901A1

tested_system: Kv7.2 (Homo sapiens, UniProt O43526)
Construct: expressed in transfected cells
assay_overview: Activation of Kv7.2 (in vitro assay, concentration response curve)
Assay type: cell-based
experimental_conditions: Kv7.2 activation max %
measurement_label: Emax (%)

molecule: O=C(NCc1ccnc(OC(F)F)c1)N[C@@H]1CC[C@@H]1F (racemic)
tested_system: Kv7.2 (Homo sapiens, UniProt O43526)
Emax [%]: 40

P. O=C(Nc1cccc(Cl)c1)NC(CO)c1ccnc(OC(F)F)c1 (single isomer, unassigned) [Example 263]
Q. O=C(NCc1ccnc(CC(F)(F)F)c1)Nc1ccc(F)c(F)c1
Recorded Emax values differ for P and Q ; which one is higher? Reply with the label of the item you choose.
P

* * *

tested_system: Kv7.2 (Homo sapiens, UniProt O43526)
Construct: expressed in transfected cells
assay_overview: Activation of Kv7.2 (in vitro assay, concentration response curve)
Type: cell-based
experimental_conditions: Kv7.2 activation max %
measurement_label: Emax (%)

molecule: O=C(NCc1ccnc(OC(F)F)c1)N[C@@H]1C[C@H]2CC[C@@H]1C2 (racemic)
tested_system: Kv7.2 (Homo sapiens, UniProt O43526)
endpoint_unit: %
Emax: 81

molecule: O=C(NCc1ccnc(OC(F)F)c1)N[C@@H]1CCC(F)(F)C1
tested_system: Kv7.2 (Homo sapiens, UniProt O43526)
endpoint_unit: %
Emax: 48

molecule: O=C(NCc1ccnc(OC(F)F)c1)N[C@H]1CC[C@H](C(F)(F)F)C1 (single isomer, unassigned)
tested_system: Kv7.2 (Homo sapiens, UniProt O43526)
endpoint_unit: %
Emax: 58

molecule: CC1CC(NC(=O)NCc2ccnc(OC(F)F)c2)C1 (stereo not drawn)
tested_system: Kv7.2 (Homo sapiens, UniProt O43526)
endpoint_unit: %
Emax: 76

molecule: CC1(C)CCC(NC(=O)NCc2ccnc(-n3ccnc3)c2)CC1
tested_system: Kv7.2 (Homo sapiens, UniProt O43526)
endpoint_unit: %
Emax: 59

molecule: O=C(NCc1ccnc(OC(F)F)c1)NC12CCC(F)(CC1)CC2
tested_system: Kv7.2 (Homo sapiens, UniProt O43526)
endpoint_unit: %
Emax: 54

molecule: O=C(NC(CO)c1ccnc(OC(F)F)c1)NC12CCC(F)(CC1)CC2 (stereo not drawn)
tested_system: Kv7.2 (Homo sapiens, UniProt O43526)
endpoint_unit: %
Emax: 74

molecule: O=C(NCc1ccnc(OCC2CCC2)c1)N[C@H]1C[C@H](C(F)(F)F)C1
tested_system: Kv7.2 (Homo sapiens, UniProt O43526)
endpoint_unit: %
Emax: 62

molecule: O=C(NCc1ccnc(OC(F)F)c1)N[C@H](C1CCC1)C(F)(F)F
tested_system: Kv7.2 (Homo sapiens, UniProt O43526)
endpoint_unit: %
Emax: 68
